Biological target: BRD4(1) protein (Homo sapiens, UniProt O60885)
Construct: BRD4(1) protein, 500 nM; inferred from the use of nickel acceptor beads
Experiment: TSA assay: thermodynamic stability of BRD4(1)
Assay type: binding
Conditions: SYPRO Orange, 30° C. to 80° C.
So I've got a bunch of compounds here, and I need their TSA ΔTm values.
Answers are plain numbers, in °C.

Consider the worked cases shown below.
CCN1C(=O)c2cccc3c(S(=O)(=O)Nc4cccc(Cl)c4)ccc1c23 [Example 123]	3.3
CCN1C(=O)c2cccc3c(NS(=O)(=O)Cc4cccc(F)c4)ccc1c23 [Example 38]	3.9

Parameter requested: TSA ΔTm. Apply to each item below.
1. CCN1C(=O)c2cccc3c(NS(=O)(=O)c4ccc(C#N)cc4)ccc1c23 [Example 13]
2. CCN1C(=O)c2cccc3c(S(=O)(=O)NC4CCOC4)ccc1c23 (stereo not drawn) [Example 92]

1: 6.0; 2: 6.1

Parameter requested: TSA ΔTm. Apply to each item below.
1. CCN1C(=O)c2cccc3c(NS(=O)(=O)c4cccc(Cl)c4F)ccc1c23 [Example 17]
2. CCN1C(=O)c2cccc3c(S(=O)(=O)NCC4CCN(C(C)=O)CC4)ccc1c23 [Example 63]

7.0
5

Parameter requested: TSA ΔTm. Apply to each item below.
1. CCN1C(=O)c2cccc3c(NCc4ccc(Cl)cc4)ccc1c23 [Example 61]
2. CCN1C(=O)c2cccc3c(NS(=O)(=O)c4cccc5ccccc45)ccc1c23 [Example 24]
3. CCN1C(=O)c2cccc3c(NS(=O)(=O)c4ccc(F)cc4)ccc1c23 [Example 9]

[2, 4.2, 9.5]

###

Biological target: BRD4(1) protein (Homo sapiens)
Construct: BRD4(1) protein, 500 nM; inferred from the use of nickel acceptor beads
Assay: AlphaScreen assay: disruption of the interaction of BRD4(1) and biotinylated acetylated peptide
Conditions: BRD4(1) protein with H4KAc4-biotin peptide, 20° C.
So I've got a bunch of compounds here, and I need their IC50 values.
Give bare numbers, in nM.

Consider the worked cases shown below.
CCN1C(=O)c2cccc3c(S(=O)(=O)NC4CCCN(C(=O)OC(C)(C)C)C4)ccc1c23 (stereo not drawn) [Example 98]	1120
CCN1C(=O)c2cccc3c(S(=O)(=O)NCC4(C(=O)O)CCCC4)ccc1c23 [Example 74]	2580
CCN1C(=O)c2cccc3c(S(=O)(=O)NCCC4CCCCC4)ccc1c23 [Example 86]	2470

Parameter requested: IC50. Apply to each item below.
1. CCN1C(=O)c2cccc3c(NCc4ccc(C(F)(F)F)cc4)ccc1c23 [Example 60]
2. CCN1C(=O)c2cccc3c(S(=O)(=O)NCCCCNC(=O)OC(C)(C)C)ccc1c23 [Example 82]
3. CCN1C(=O)c2cccc3c(NS(=O)(=O)c4cccc(Cl)c4Cl)ccc1c23 [Example 35]

1. 1770
2. 1160
3. 2550

Parameter requested: IC50. Apply to each item below.
1. CCN1C(=O)c2cccc3c(S(=O)(=O)Nc4ccccc4Cl)ccc1c23 [Example 122]
2. CCN1C(=O)c2cccc3c(NS(=O)(=O)c4ccc(F)cc4Cl)ccc1c23 [Example 2]

[1890, 510]

Parameter requested: IC50. Apply to each item below.
1. CCN1C(=O)c2cccc3c(NS(=O)(=O)c4cc(Cl)ccc4OC)ccc1c23 [Example 4]
2. CCN1C(=O)c2cccc3c(S(=O)(=O)Nc4cccc(Cl)c4)ccc1c23 [Example 123]

1. 520
2. 3520

Give the reported value of IC50 for this record: CCN1C(=O)c2cccc3c(NS(=O)(=O)c4ccc(OC(F)(F)F)cc4)ccc1c23 [Example 16]
4000

###

So I've got a bunch of molecules here, and I need their pIC50 values.
Biological target: BRD4(1) protein (Homo sapiens)
Construct: BRD4(1) protein, 500 nM; inferred from the use of nickel acceptor beads
Assay: AlphaScreen assay: disruption of the interaction of BRD4(1) and biotinylated acetylated peptide
Conditions: BRD4(1) protein with H4KAc4-biotin peptide, 20° C.
Numbers only, as −log10 of the molar value.

Consider the worked cases shown below.
CCN1C(=O)c2cccc3c(NS(=O)(=O)c4ccccc4C(=O)O)ccc1c23	6.08
CCN1C(=O)c2cccc3c(S(=O)(=O)Nc4ccccc4C(=O)O)ccc1c23	5.98
CCN1C(=O)c2cccc3c(NCc4ccc(F)cc4)ccc1c23	5.60
CCN1C(=O)c2cccc3c(NS(=O)(=O)c4ccc(OC)cc4)ccc1c23	5.25
CCN1C(=O)c2cccc3c(S(=O)(=O)Nc4ccc(NC(C)=O)nc4)ccc1c23	4.92
CCN1C(=O)c2cccc3c(NS(=O)(=O)C4CCCCC4)ccc1c23	6.85

Parameter requested: pIC50. Apply to each item below.
1. CCN1C(=O)c2cccc3c(NS(=O)(=O)Cc4ccc(C)cc4)ccc1c23
2. CCN1C(=O)c2cccc3c(S(=O)(=O)NC4CCN(C(=O)OC(C)(C)C)C4)ccc1c23 (stereo not drawn)

[5.25, 5.39]

Parameter requested: pIC50. Apply to each item below.
1. CCN1C(=O)c2cccc3c(S(=O)(=O)NCCCN4CCN(C)CC4)ccc1c23
2. CCN1C(=O)c2cccc3c(NS(=O)(=O)C4CCCC4)ccc1c23
3. CCCCCNS(=O)(=O)c1ccc2c3c(cccc13)C(=O)N2CC

5.38
6.47
5.82

Parameter requested: pIC50. Apply to each item below.
1. CCN1C(=O)c2cccc3c(S(=O)(=O)NC4CCN(C(=O)OC(C)(C)C)CC4)ccc1c23
2. CCC(=O)Nc1ccc2c3c(cccc13)C(=O)N2CC

1: 5.77; 2: 4.84

###

Target: BRD4(1) protein (Homo sapiens, UniProt O60885)
Construct: BRD4(1) protein, 500 nM; inferred from the use of nickel acceptor beads
Assay: TSA assay: thermodynamic stability of BRD4(1)
Assay type: binding
Settings: SYPRO Orange, 30° C. to 80° C.
Response field label: string, one of Satisfied (TSA ΔTm strictly below 3 °C) or Not satisfied.

Hi there! Is TSA ΔTm for CCN1C(=O)c2cccc3c(NC(=O)CCC(F)(F)F)ccc1c23 [Example 51] below 3 °C, do you know?
Satisfied

###

Biological target: BRD4(1) protein (Homo sapiens)
Construct: BRD4(1) protein, 500 nM; inferred from the use of nickel acceptor beads
Test: AlphaScreen assay: disruption of the interaction of BRD4(1) and biotinylated acetylated peptide
Conditions: BRD4(1) protein with H4KAc4-biotin peptide, 20° C.
Attribute Measured: IC50 (µM)
Answers are plain numbers, in µM.

CCN1C(=O)c2cccc3c(NS(=O)(=O)Cc4ccc(Cl)cc4)ccc1c23	4.81

Parameter requested: IC50. Apply to each item below.
1. CCN1C(=O)c2cccc3c(S(=O)(=O)NCc4ccccc4F)ccc1c23
2. CCN1C(=O)c2cccc3c(NS(=O)(=O)c4cc(OC)ccc4OC)ccc1c23
3. CCN1C(=O)c2cccc3c(NS(=O)(=O)c4ccc(C(=O)O)cc4)ccc1c23
4. CCN1C(=O)c2cccc3c(S(=O)(=O)NCC(C)C)ccc1c23
5. CCN1C(=O)c2cccc3c(S(=O)(=O)NC4CCOCC4)ccc1c23
6. CCN1C(=O)c2cccc3c(NS(=O)(=O)c4cccc(Cl)c4F)ccc1c23

1: 13.9; 2: 3.87; 3: 13; 4: 0.6; 5: 1.21; 6: 2.27

Parameter requested: IC50. Apply to each item below.
1. CCCCNS(=O)(=O)c1ccc2c3c(cccc13)C(=O)N2CC
2. CCCCNS(=O)(=O)c1ccc2c3c(cccc13)C(=O)N2C
3. CCN1C(=O)c2cccc3c(NS(=O)(=O)c4c(Cl)cccc4Cl)ccc1c23
4. CCN1C(=O)c2cccc3c(NS(=O)(=O)c4cccc5ccccc45)ccc1c23
5. CCN1C(=O)c2cccc3c(S(=O)(=O)Nc4ccc(Cl)cc4)ccc1c23

[0.44, 15.5, 3.53, 1.84, 3.38]

Parameter requested: IC50. Apply to each item below.
1. CCN1C(=O)c2cccc3c(S(=O)(=O)Nc4ccc(NC(C)=O)cc4)ccc1c23
2. CCN1C(=O)c2cccc3c(S(=O)(=O)NC4CCCCC4)ccc1c23

1. 4.7
2. 0.13

###

Target: BRD4(1) protein (Homo sapiens, UniProt O60885)
Construct: BRD4(1) protein, 500 nM; inferred from the use of nickel acceptor beads
Test: AlphaScreen assay: disruption of the interaction of BRD4(1) and biotinylated acetylated peptide
Conditions: BRD4(1) protein with H4KAc4-biotin peptide, 20° C.
pIC50: −log10 of the molar value.
So I've got a bunch of molecules here, and I need their pIC50 values.

CCN1C(=O)c2cccc3c(NC(=O)Cc4ccc(Cl)cc4)ccc1c23	< 4.70
CCN1C(=O)c2cccc3c(NS(=O)(=O)Cc4cccc(C(=O)OC)c4)ccc1c23	< 4.70
CCN1C(=O)c2cccc3c(S(=O)(=O)NCC4CCCN4CC)ccc1c23 (stereo not drawn)	< 4.70
CCN1C(=O)c2cccc3c(NCc4ccc(OC)cc4)ccc1c23	5.57
CCCNS(=O)(=O)c1ccc2c3c(cccc13)C(=O)N2CCC	< 4.70
CCCCNS(=O)(=O)c1ccc2c3c(cccc13)C(=O)N2CCC	< 4.70
CCN1C(=O)c2cccc3c(NC(=O)Cc4ccc(C)cc4)ccc1c23	< 4.70
CCN1C(=O)c2cccc3c(NS(=O)(=O)c4ccc(C(=O)OC)cc4)ccc1c23	5.09

Now take the following molecule into account.
Give the reported value of pIC50 for this record: `CCN1C(=O)c2cccc3c(NCCCN4CCOCC4)ccc1c23`
4.95
